Assay System: EGFR (Homo sapiens (Human))
Sequence (P00533 25-1210): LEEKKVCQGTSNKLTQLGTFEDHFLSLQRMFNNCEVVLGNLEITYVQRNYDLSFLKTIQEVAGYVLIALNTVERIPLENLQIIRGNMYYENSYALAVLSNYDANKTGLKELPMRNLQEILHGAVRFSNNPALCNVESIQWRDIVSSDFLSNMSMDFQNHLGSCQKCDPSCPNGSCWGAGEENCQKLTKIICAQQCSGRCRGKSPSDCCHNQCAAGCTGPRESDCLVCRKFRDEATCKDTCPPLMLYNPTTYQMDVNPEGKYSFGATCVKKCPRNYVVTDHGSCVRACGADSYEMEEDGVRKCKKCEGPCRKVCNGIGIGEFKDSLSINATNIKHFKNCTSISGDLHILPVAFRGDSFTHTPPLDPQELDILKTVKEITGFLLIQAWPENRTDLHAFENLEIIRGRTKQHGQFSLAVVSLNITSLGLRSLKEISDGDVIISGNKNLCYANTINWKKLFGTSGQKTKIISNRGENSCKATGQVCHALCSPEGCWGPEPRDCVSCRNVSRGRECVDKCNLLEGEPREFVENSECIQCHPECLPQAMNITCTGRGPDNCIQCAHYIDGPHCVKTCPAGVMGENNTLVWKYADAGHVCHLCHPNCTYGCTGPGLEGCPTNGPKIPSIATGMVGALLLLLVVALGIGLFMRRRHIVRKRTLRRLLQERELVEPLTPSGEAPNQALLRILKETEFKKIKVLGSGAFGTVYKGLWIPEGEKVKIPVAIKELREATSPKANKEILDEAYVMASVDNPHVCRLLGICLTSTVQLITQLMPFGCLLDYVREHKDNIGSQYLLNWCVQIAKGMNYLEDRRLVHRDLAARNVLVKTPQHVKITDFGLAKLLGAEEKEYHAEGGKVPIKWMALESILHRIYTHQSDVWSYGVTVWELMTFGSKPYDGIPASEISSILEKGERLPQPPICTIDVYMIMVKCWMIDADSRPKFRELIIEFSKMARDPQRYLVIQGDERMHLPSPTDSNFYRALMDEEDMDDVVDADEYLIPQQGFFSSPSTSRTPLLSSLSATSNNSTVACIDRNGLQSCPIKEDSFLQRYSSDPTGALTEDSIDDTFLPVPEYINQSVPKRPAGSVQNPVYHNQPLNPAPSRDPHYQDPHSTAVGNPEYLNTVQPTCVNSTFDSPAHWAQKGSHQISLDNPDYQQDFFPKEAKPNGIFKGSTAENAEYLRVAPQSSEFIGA
Observable: IC50

Query: Please look at `Cc1c(Oc2ccc3c(c2)ncn3C)ccc(Nc2ncnc3cnc(N4CC[C@@H](O)C4)nc23)c1F` and tell me its recorded IC50 on EGFR (Homo sapiens (Human)).
Response: ≥ 10 µM

Query: Please look at `Cc1cc(Nc2ncnc3cnc(N(C)CC(C)(C)O)nc23)c(F)cc1Oc1ccc2c(c1)ncn2C` and tell me its recorded IC50 on EGFR (Homo sapiens (Human)).
Response: ≥ 10 µM

Query: Please look at `Cc1c(Oc2ccn3ncnc3c2)ccc(Nc2ncnc3cnc(N4CC[C@](C)(O)C4)nc23)c1F` and tell me its recorded IC50 on EGFR (Homo sapiens (Human)).
Response: ≥ 10 µM

Query: Please look at `Cc1cc(Nc2ncnc3cnc(NC4=NC(C)(C)CO4)nc23)ccc1Oc1ccc2c(c1)ncn2C` and tell me its recorded IC50 on EGFR (Homo sapiens (Human)).
Response: ≥ 10 µM

Query: Please look at `Cc1cc(Nc2ncnc3cnc(N4CCC(F)(F)[C@@H](O)C4)nc23)ccc1Oc1ccc2c(c1)ncn2C` and tell me its recorded IC50 on EGFR (Homo sapiens (Human)).
Response: ≥ 10 µM

Query: Please look at `C[C@H]1CN(c2ncc3ncnc(Nc4ccc(Oc5ccn6ncnc6c5)c(Cl)c4)c3n2)CCO1` and tell me its recorded IC50 on EGFR (Homo sapiens (Human)).
Response: 3.82 µM

Query: Please look at `Cc1cc(Nc2ncnc3cnc(N4CCC(C)(O)CC4)nc23)ccc1Oc1ccn2ncnc2c1` and tell me its recorded IC50 on EGFR (Homo sapiens (Human)).
Response: 5.34 µM

Query: Please look at `CN(c1ncc2ncnc(Nc3ccc(Oc4ccn5ncnc5c4)c(Cl)c3)c2n1)[C@H]1CCOC1` and tell me its recorded IC50 on EGFR (Homo sapiens (Human)).
Response: 5.72 µM

---

Assay System: ErbB2 with Exon 20 YVMA insertion (HER2-YVMA) (Homo sapiens (Human), UniProt P04626, INS775YVMA)
Sequence (P04626 other isoform, or with tags, fused parts or gaps ins YVMA behind 775): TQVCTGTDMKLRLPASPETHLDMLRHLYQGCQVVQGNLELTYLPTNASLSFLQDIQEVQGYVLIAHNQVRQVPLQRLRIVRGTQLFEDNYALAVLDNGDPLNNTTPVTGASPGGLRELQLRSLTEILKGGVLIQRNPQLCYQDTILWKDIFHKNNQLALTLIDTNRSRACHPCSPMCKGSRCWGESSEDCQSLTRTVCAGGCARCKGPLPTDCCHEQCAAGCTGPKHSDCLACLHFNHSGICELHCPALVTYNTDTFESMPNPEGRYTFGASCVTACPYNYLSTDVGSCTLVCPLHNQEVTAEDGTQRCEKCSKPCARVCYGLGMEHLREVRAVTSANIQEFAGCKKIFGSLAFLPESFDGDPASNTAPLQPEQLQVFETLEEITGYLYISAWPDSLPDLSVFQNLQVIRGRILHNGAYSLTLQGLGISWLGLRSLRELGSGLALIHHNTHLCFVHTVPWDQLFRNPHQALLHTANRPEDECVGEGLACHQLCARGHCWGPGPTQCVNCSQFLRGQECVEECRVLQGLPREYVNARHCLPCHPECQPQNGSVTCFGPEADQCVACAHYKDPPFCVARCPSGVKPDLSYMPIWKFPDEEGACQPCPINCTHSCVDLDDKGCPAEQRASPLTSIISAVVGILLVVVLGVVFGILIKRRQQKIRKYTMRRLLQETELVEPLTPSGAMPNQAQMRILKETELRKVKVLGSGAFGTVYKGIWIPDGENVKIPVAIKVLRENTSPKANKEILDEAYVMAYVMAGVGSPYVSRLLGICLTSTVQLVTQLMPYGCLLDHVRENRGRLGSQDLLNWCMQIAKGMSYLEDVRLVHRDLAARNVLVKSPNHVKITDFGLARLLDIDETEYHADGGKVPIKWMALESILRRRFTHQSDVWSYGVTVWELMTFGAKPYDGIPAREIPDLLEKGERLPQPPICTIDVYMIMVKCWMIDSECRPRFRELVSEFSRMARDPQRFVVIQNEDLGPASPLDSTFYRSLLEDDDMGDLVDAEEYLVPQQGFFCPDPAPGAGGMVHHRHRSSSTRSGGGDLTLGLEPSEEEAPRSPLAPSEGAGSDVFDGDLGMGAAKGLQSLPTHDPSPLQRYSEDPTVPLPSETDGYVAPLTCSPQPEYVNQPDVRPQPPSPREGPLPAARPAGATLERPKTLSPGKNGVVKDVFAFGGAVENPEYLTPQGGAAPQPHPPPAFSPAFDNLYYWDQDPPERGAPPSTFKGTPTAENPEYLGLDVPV
Experiment Description: Cellular phosphorylation assay, constitutive ErbB2 phosphorylation (Y1196) in engineered NIH 3T3 cells, Assay 4
Observable: pIC50
Please express pIC50 as -log10 of the molar concentration.

Query: // fetch pIC50 given entry Cc1cc(Nc2ncnc3cnc(N4CCN(C)[C@H](C)C4)nc23)ccc1Oc1ccc2c(c1)ncn2C [Example 281]
Response: 7.58

Query: // fetch pIC50 given entry Cc1cc(Nc2ncnc3cnc(N4CCC[C@@H]4C(C)(C)O)nc23)ccc1Oc1ccc2c(c1)ncn2C [Example 371]
Response: 6.89

Query: // fetch pIC50 given entry COC1CC2(C1)CN(c1ncc3ncnc(Nc4ccc(Oc5ccc6c(c5)ncn6C)c(C)c4)c3n1)C2 [Example 237]
Response: 7.15

Query: // fetch pIC50 given entry Cc1cc(Nc2ncnc3cnc(N4CCC[C@@]5(CCO5)C4)nc23)ccc1Oc1ccc2c(c1)ncn2C [Example 386]
Response: 7.78

Query: // fetch pIC50 given entry COc1ncc2ncnc(Nc3ccc(Oc4ccc5c(c4)ncn5C)c(C)c3)c2n1 [Example 8, 2,2,2-trifluoroacetate]
Response: 6.80

Query: // fetch pIC50 given entry Cc1cc(Nc2ncnc3cnc(N4CC5(CC5)CO4)nc23)ccc1Oc1ccc2c(c1)ncn2C [Example 187]
Response: 7.84

Query: // fetch pIC50 given entry Cc1cc(Nc2ncnc3cnc(N4CCC5COCC54)nc23)ccc1Oc1ccn2ncnc2c1 (stereo not shown) [Example 420]
Response: 6.96

Query: // fetch pIC50 given entry N#C[C@@H]1CCN(c2ncc3ncnc(Nc4ccc(Oc5ccn6ncnc6c5)c(Cl)c4)c3n2)C1 [Example 387]
Response: 6.79

Query: // fetch pIC50 given entry Cc1cc(Nc2ncnc3cnc(N4CC[C@H](OC(F)F)C4)nc23)ccc1Oc1ccn2ncnc2c1 [Example 361]
Response: 6.51

Query: // fetch pIC50 given entry Cc1cc(Nc2ncnc3cnc(N4CCP(C)(=O)CC4)nc23)ccc1Oc1ccc2c(c1)ncn2C [Example 463]
Response: 6.18

Query: // fetch pIC50 given entry Clc1cc(Nc2ncnc3cnc(N4C[C@@H]5[C@H](C4)[C@@H]4CC[C@H]5O4)nc23)ccc1Oc1ccn2ncnc2c1 [Example 399]
Response: 6.72

Query: // fetch pIC50 given entry Cc1cc(Nc2ncnc3cnc(N4CC[C@@](C)(O)C4)nc23)c(F)cc1Oc1ccc2c(c1)ncn2C [Example 214]
Response: 7.55

Query: // fetch pIC50 given entry Cc1cc(Nc2ncnc3cnc(OCC(C)(C)O)nc23)ccc1Oc1ccc2c(c1)ncn2C [Example 476]
Response: 6.81

Query: // fetch pIC50 given entry Cc1cc(Nc2ncnc3cnc(N4CCO[C@@H](C)C4)nc23)ccc1Oc1ccc2c(c1)ncn2C.O=C(O)C(F)(F)F [Example 74, 2,2,2-trifluoroacetate]
Response: 7.84

Query: // fetch pIC50 given entry COC1CCN(c2ncc3ncnc(Nc4ccc(Oc5ccn6ncnc6c5)c(C)c4)c3n2)CC1 [Example 411]
Response: 6.22

Query: // fetch pIC50 given entry Cc1c(Oc2ccn3ncnc3c2)ccc(Nc2ncnc3cnc(N4CC[C@@](C)(O)C4)nc23)c1F [Example 308]
Response: 6.31

Query: // fetch pIC50 given entry Cc1cc(Nc2ncnc3cnc(N4CCN5CCOC[C@H]5C4)nc23)ccc1Oc1ccc2c(c1)ncn2C [Example 180]
Response: 7.81

Query: // fetch pIC50 given entry CN(c1ncc2ncnc(Nc3ccc(Oc4ccn5ncnc5c4)c(Cl)c3)c2n1)C1COC1 [Example 424]
Response: 7.35

Query: // fetch pIC50 given entry Cc1cc(Nc2ncnc3cnc(N4C[C@@H]5COC[C@@H]54)nc23)ccc1Oc1ccc2c(c1)ncn2C [Example 348]
Response: 7.84

Query: // fetch pIC50 given entry Cc1cc(Nc2ncnc3cnc(N(C)CC4CCO4)nc23)ccc1Oc1ccc2c(c1)ncn2C (stereo not shown) [Example 350]
Response: 7.58

Query: // fetch pIC50 given entry CON1CCN(c2ncc3ncnc(Nc4ccc(Oc5ccc6c(c5)ncn6C)c(Cl)c4)c3n2)CC1.O=C(O)C(F)(F)F [Example 141, 2,2,2-trifluoroacetate]
Response: 7.77

Query: // fetch pIC50 given entry Cc1cc(Nc2ncnc3cnc(N4CCO[C@H]5C[C@H]54)nc23)ccc1Oc1ccc2c(c1)ncn2C (single isomer, unassigned) [Example 60b]
Response: 7.75
